- PROCEDURE_SUMMARY: Inhibitory concentration against Alpha-chymotrypsin
pIC50: −log10 of the molar value.
Reported values of pIC50 for individual entries

Solved entries:
Cc1ccc2oc(=O)c3cc([N+](=O)[O-])ccc3c2c1 = < 4.00
O=c1oc2ccc(CBr)cc2c2ccc([N+](=O)[O-])cc12 = < 4.00

In the following, a different compound is considered.
Return reported pIC50; argument: Cc1ccc2oc(=O)c3cc(N)ccc3c2c1
< 4.00

---

- TEST_SYSTEM: Human immunodeficiency virus type 1 protease (Human immunodeficiency virus 1)
- PROCEDURE_SUMMARY: Inhibitory concentration against HIV aspartyl protease
pIC50 values, listed per item
// pIC50 is dimensionless: -log10 of concentration (M)

O=c1oc2ccc(CBr)cc2c2ccc([N+](=O)[O-])cc12 = 5.00
Nc1ccc2c(c1)c(=O)oc1ccc(CBr)cc12 = 4.30

Next molecule, pIC50 to be filled in.
So what's the measured pIC50 for this one? Cc1ccc2oc(=O)c3cc([N+](=O)[O-])ccc3c2c1
4.30

src = ChEMBL document CHEMBL1145141
